biological target: Ephrin type-A receptor 4 (Homo sapiens) (UniProt P54764); conditions: at 1 µM
Sequence (P54764 whole entry): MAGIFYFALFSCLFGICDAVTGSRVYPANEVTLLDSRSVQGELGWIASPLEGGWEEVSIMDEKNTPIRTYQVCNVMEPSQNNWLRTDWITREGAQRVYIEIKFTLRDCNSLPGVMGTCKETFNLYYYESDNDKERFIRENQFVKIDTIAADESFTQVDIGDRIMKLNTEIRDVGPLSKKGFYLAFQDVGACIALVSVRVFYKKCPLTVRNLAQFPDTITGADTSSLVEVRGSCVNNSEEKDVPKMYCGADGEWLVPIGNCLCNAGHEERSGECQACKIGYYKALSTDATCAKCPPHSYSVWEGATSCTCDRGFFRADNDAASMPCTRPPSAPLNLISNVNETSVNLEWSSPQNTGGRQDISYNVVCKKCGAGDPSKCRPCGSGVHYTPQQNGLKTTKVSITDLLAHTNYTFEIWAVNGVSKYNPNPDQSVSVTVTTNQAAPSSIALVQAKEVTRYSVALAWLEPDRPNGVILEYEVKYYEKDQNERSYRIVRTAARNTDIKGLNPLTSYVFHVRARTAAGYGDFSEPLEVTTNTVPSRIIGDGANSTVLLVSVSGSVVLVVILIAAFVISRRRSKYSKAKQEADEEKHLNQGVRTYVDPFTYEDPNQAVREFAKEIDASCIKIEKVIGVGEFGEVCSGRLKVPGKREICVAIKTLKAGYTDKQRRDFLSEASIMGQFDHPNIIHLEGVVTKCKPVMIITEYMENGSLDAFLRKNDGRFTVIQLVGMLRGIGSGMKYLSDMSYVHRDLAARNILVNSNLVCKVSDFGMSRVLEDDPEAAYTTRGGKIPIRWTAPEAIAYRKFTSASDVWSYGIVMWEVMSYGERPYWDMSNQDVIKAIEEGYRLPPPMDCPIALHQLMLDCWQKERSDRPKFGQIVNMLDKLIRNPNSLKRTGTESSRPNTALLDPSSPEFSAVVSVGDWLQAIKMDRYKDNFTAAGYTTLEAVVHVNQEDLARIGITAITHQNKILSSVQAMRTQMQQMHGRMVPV
measured.metric: residual activity (%)
Give bare numbers, in %.

COc1cc2ncnc(Nc3ccc(OCc4ccccc4)cc3)c2cc1OC :: 118
O=C1Nc2ccc3ncsc3c2/C1=C/c1c[nH]cn1 :: 102
COc1cc(OC)c(/C=C2\C(=O)Nc3ccccc32)c(OC)c1 :: 103
CC(C)(C)c1cc(C=C(C#N)C#N)cc(Br)c1O :: 113

List residual activity for every entry below, keeping the order given.
1. CC(C)[C@H](CO)Nc1nc(Nc2cccc(Cl)c2)c2ncn(C(C)C)c2n1
2. CCc1nc(-c2ccc(OC)cc2)[nH]c1-c1ccncc1
3. O=[N+]([O-])/C=C/c1ccc2c(c1)OCO2
4. C[S+]([O-])c1ccc(-c2nc(-c3ccc(F)cc3)c(-c3ccncc3)[nH]2)cc1 (stereo not drawn)

Marked response:
1. 95
2. 114
3. 112
4. 110

* * *

target: Serine/threonine-protein kinase VRK2 (Homo sapiens); conditions: at 10 µM
Description: Millipore: Percentage of residual kinase activity of VRK2 at 10uM relative to control. Control inhibitor: Phosphoric acid* at 0.3uM. Buffer: 8 mM MOPS pH 7.0, 0.2 mM EDTA
measured.metric: residual activity (%)
Give bare numbers, in %.

// known answers, use as guide
COc1cc(OC)c(/C=C2\C(=O)Nc3ccccc32)c(OC)c1 :: 32
COc1ccc2c(c[n+](C)c3c4cc5c(cc4ccc23)OCO5)c1OC :: 91
O=[N+]([O-])/C=C/c1ccc2c(c1)OCO2 :: 91
CN[C@@H]1C[C@H]2O[C@@](C)([C@@H]1OC)n1c3ccccc3c3c4c(c5c6ccccc6n2c5c31)C(=O)NC4 :: 90
CCn1cnc2c(Nc3cccc(Cl)c3)nc(N[C@@H]3CCCC[C@@H]3N)nc21 :: 48
O=C1c2ccccc2-c2nc3nnnn3nc21 :: 102
O=C1Nc2ccc3ncsc3c2/C1=C/c1c[nH]cn1 :: 26
O=c1[nH]c2ccccc2n1C1CCN(Cc2ccc(-c3nc4cc5[nH]cnc5cc4nc3-c3ccccc3)cc2)CC1 :: 93

List residual activity for every entry below, keeping the order given.
1. CCc1nc(-c2ccc(OC)cc2)[nH]c1-c1ccncc1
2. COc1ccc2c(c1)/C(=C/c1cnc[nH]1)C(=O)N2

Marked response:
[101, 66]

* * *

target: Aurora kinase C (Homo sapiens); settings: at 10 µM
measured.metric: residual activity (%)
Answers are plain numbers, in %.

List residual activity for every entry below, keeping the order given.
1. COC(=O)[C@@]1(O)C[C@H]2O[C@]1(C)n1c3ccccc3c3c4c(c5c6ccccc6n2c5c31)C(=O)NC4
2. C[S+]([O-])c1ccc(-c2nc(-c3ccc(F)cc3)c(-c3ccncc3)[nH]2)cc1 (configuration not stated)
3. COc1ccc2c(c[n+](C)c3c4cc5c(cc4ccc23)OCO5)c1OC
4. O=C1Nc2ccc3ncsc3c2/C1=C/c1c[nH]cn1
5. CC(C)[C@H](CO)Nc1nc(Nc2cccc(Cl)c2)c2ncn(C(C)C)c2n1

Marked response:
[1, 108, 90, -1, 78]

List residual activity for every entry below, keeping the order given.
1. CCn1cnc2c(Nc3cccc(Cl)c3)nc(N[C@@H]3CCCC[C@@H]3N)nc21
2. COc1ccc2c(c1)/C(=C/c1cnc[nH]1)C(=O)N2

Marked response:
1. 3
2. 4

* * *

target: Serine/threonine-protein kinase pim-3 (Homo sapiens) (UniProt Q86V86); conditions: at 10 µM
measured.metric: residual activity (%)
Answers are plain numbers, in %.

COc1ccc2c(c[n+](C)c3c4cc5c(cc4ccc23)OCO5)c1OC :: 95
COc1ccc2c(c1)/C(=C/c1cnc[nH]1)C(=O)N2 :: 52

List residual activity for every entry below, keeping the order given.
1. COC(=O)[C@@]1(O)C[C@H]2O[C@]1(C)n1c3ccccc3c3c4c(c5c6ccccc6n2c5c31)C(=O)NC4
2. COc1cc(OC)c(/C=C2\C(=O)Nc3ccccc32)c(OC)c1

Marked response:
1. 5
2. 86

List residual activity for every entry below, keeping the order given.
1. O=[N+]([O-])/C=C/c1ccc2c(c1)OCO2
2. CCn1cnc2c(Nc3cccc(Cl)c3)nc(N[C@@H]3CCCC[C@@H]3N)nc21
3. O=c1[nH]c2ccccc2n1C1CCN(Cc2ccc(-c3nc4cc5[nH]cnc5cc4nc3-c3ccccc3)cc2)CC1
4. CC(C)(C)c1cc(C=C(C#N)C#N)cc(Br)c1O

Marked response:
[103, 13, 97, 104]

* * *

target: Serine/threonine-protein kinase PAK 2 (Homo sapiens) (UniProt Q13177); details: at 10 µM
Sequence (Q13177 whole entry): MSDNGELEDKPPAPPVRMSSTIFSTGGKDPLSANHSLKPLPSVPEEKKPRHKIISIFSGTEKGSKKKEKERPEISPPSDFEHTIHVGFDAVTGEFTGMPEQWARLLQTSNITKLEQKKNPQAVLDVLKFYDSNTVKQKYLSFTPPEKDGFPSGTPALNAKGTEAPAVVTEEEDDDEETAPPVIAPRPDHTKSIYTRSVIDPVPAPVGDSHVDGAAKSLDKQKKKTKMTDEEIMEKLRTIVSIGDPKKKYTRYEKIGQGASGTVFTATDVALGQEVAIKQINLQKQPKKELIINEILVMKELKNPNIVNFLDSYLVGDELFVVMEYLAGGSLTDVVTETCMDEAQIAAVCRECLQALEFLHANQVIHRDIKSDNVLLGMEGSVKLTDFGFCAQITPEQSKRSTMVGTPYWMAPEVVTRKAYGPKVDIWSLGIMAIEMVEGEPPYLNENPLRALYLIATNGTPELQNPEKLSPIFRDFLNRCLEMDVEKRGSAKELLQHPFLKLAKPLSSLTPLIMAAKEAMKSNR
So I've got a bunch of compounds here, and I need their residual activity values.
Answers are plain numbers, in %.

// known answers, use as guide
O=C1Nc2ccc3ncsc3c2/C1=C/c1c[nH]cn1 :: 54
CCc1nc(-c2ccc(OC)cc2)[nH]c1-c1ccncc1 :: 110
N/C(=N\[N+](=O)[O-])N/N=C\c1ccc(-c2cccc([N+](=O)[O-])c2)o1 :: 95
CCn1cnc2c(Nc3cccc(Cl)c3)nc(N[C@@H]3CCCC[C@@H]3N)nc21 :: 73

We now examine a further compound.
Exam item: Quote residual activity reported for "c1cc(-c2cnn3cc(-c4ccc(OCCN5CCCCC5)cc4)cnc23)ccn1" please.
Marked response: 103

* * *

target: Macrophage-stimulating protein receptor (Homo sapiens) (UniProt Q04912); settings: at 10 µM
Sequence (Q04912 25-304 limits assumed): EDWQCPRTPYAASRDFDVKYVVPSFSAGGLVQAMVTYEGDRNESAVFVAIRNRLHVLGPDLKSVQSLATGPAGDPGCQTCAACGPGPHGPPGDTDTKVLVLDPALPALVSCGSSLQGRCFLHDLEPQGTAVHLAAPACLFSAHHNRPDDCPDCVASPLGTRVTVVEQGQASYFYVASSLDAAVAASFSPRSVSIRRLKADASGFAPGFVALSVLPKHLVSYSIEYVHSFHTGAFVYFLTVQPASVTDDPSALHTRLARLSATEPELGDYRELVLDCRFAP
Sequence (Q04912 310-1400 limits assumed): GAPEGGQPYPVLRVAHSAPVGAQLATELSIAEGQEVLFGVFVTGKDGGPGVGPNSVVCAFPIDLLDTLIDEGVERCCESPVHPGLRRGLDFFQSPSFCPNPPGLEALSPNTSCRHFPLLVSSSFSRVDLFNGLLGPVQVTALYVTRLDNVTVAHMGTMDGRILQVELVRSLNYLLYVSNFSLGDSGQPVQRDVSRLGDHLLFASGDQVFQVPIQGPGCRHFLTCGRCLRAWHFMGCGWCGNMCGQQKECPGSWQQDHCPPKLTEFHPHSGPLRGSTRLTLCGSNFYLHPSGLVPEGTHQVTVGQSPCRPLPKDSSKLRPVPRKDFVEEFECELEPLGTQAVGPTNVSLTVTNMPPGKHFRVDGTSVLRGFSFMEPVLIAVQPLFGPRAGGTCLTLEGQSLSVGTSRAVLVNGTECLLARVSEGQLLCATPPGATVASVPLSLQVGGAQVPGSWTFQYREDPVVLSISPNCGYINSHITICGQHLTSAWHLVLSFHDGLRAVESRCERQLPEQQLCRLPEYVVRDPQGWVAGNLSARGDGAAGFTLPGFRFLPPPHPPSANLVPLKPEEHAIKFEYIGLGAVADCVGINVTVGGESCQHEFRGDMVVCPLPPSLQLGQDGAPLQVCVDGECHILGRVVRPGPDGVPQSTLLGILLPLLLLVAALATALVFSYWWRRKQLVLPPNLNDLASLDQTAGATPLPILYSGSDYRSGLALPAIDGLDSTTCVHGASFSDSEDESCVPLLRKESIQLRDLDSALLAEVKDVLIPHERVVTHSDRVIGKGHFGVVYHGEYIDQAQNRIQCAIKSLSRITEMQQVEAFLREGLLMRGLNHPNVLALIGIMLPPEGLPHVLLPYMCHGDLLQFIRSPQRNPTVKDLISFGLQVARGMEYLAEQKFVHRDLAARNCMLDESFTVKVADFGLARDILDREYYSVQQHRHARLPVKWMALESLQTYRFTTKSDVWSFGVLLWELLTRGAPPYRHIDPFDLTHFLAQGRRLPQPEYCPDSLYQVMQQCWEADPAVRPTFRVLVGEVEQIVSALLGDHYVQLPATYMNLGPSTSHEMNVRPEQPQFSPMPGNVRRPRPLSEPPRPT
Kind request: treat 70% as inclusive, so residual activity at 70% or higher is Yes, anything lower is No.

Consider the worked cases shown below.
N/C(=N\[N+](=O)[O-])N/N=C\c1ccc(-c2cccc([N+](=O)[O-])c2)o1 :: No
COc1ccc2c(c1)/C(=C/c1cnc[nH]1)C(=O)N2 :: No
CC(C)[C@H](CO)Nc1nc(Nc2cccc(Cl)c2)c2ncn(C(C)C)c2n1 :: Yes

Exam item: Hello, I need to know if "O=C1Nc2ccc3ncsc3c2/C1=C/c1c[nH]cn1" has measured residual activity not below 70%. Thanks!
Marked response: No

Exam item: Hello, I need to know if "O=[N+]([O-])/C=C/c1ccc2c(c1)OCO2" has measured residual activity not below 70%. Thanks!
Marked response: Yes

Exam item: Hello, I need to know if "c1cc(-c2cnn3cc(-c4ccc(OCCN5CCCCC5)cc4)cnc23)ccn1" has measured residual activity not below 70%. Thanks!
Marked response: Yes

* * *

So I've got a bunch of compounds here, and I need their residual activity values.
target: Serine/threonine-protein kinase D2 (Homo sapiens); details: at 10 µM
Answers are plain numbers, in %.

// known answers, use as guide
O=c1[nH]c2ccccc2n1C1CCN(Cc2ccc(-c3nc4cc5[nH]cnc5cc4nc3-c3ccccc3)cc2)CC1 :: 108
C[S+]([O-])c1ccc(-c2nc(-c3ccc(F)cc3)c(-c3ccncc3)[nH]2)cc1 (configuration not stated) :: 90
COc1cc(OC)c(/C=C2\C(=O)Nc3ccccc32)c(OC)c1 :: 105
COC(=O)[C@@]1(O)C[C@H]2O[C@]1(C)n1c3ccccc3c3c4c(c5c6ccccc6n2c5c31)C(=O)NC4 :: 0
COc1ccc2c(c1)/C(=C/c1cnc[nH]1)C(=O)N2 :: 39

List residual activity for every entry below, keeping the order given.
1. O=C1NC(=O)c2c1c1c3ccccc3n3c1c1c2c2ccccc2n1C1CCC3O1
2. O=C1Nc2ccc3ncsc3c2/C1=C/c1c[nH]cn1

Marked response:
1. 90
2. 3

* * *

biological target: Aurora kinase A (Homo sapiens); conditions: at 1 µM
measured.metric: residual activity (%)
Numbers only, in %.

// known answers, use as guide
O=C1c2ccccc2-c2nc3nnnn3nc21 :: 71
C[S+]([O-])c1ccc(-c2nc(-c3ccc(F)cc3)c(-c3ccncc3)[nH]2)cc1 (stereo unspecified) :: 117

List residual activity for every entry below, keeping the order given.
1. COc1ccc2c(c[n+](C)c3c4cc5c(cc4ccc23)OCO5)c1OC
2. COC(=O)[C@@]1(O)C[C@H]2O[C@]1(C)n1c3ccccc3c3c4c(c5c6ccccc6n2c5c31)C(=O)NC4
3. CCn1cnc2c(Nc3cccc(Cl)c3)nc(N[C@@H]3CCCC[C@@H]3N)nc21
4. O=C1Nc2ccc3ncsc3c2/C1=C/c1c[nH]cn1

Marked response:
83
2
85
0

* * *

target: cGMP-dependent protein kinase 1 (Homo sapiens); conditions: at 10 µM
So I've got a bunch of molecules here, and I need their residual activity values.
Answers are plain numbers, in %.

O=C1NC(=O)c2c1c1c3ccccc3n3c1c1c2c2ccccc2n1C1CCC3O1 :: 73
O=c1[nH]c2ccccc2n1C1CCN(Cc2ccc(-c3nc4cc5[nH]cnc5cc4nc3-c3ccccc3)cc2)CC1 :: 110
COc1ccc2c(c[n+](C)c3c4cc5c(cc4ccc23)OCO5)c1OC :: 92
COc1cc(OC)c(/C=C2\C(=O)Nc3ccccc32)c(OC)c1 :: 108
COC(=O)[C@@]1(O)C[C@H]2O[C@]1(C)n1c3ccccc3c3c4c(c5c6ccccc6n2c5c31)C(=O)NC4 :: 1

List residual activity for every entry below, keeping the order given.
1. c1cc(-c2cnn3cc(-c4ccc(OCCN5CCCCC5)cc4)cnc23)ccn1
2. O=C1Nc2ccc3ncsc3c2/C1=C/c1c[nH]cn1

Marked response:
[25, 2]

List residual activity for every entry below, keeping the order given.
1. COc1cc2ncnc(Nc3ccc(OCc4ccccc4)cc3)c2cc1OC
2. C[S+]([O-])c1ccc(-c2nc(-c3ccc(F)cc3)c(-c3ccncc3)[nH]2)cc1 (centres undefined)

Marked response:
[125, 99]

Data provenance is ChEMBL document CHEMBL2218924.
